experiment: Concentrations in urine of rats after a single oral administration; format: in vivo; conditions: rat, 6.25 mg/kg oral, 24-27 hours, mean ±S.E., read-out: Urinary level
quantity_name: concentration at 27 h (ng/mL)

> print(dat)
                                   molecule  unit.abbreviation  quantitative.result
1  CCn1cc(C(=O)O)c(=O)c2cc(F)c(N3CCNCC3)cc21 [Compound (II)]              ng/mL                   40

====

test: Serum concentrations after a single oral administration of 50 mg/kg in rats; type: in vivo; conditions: serum; rat, 50 mg/kg oral; read-out: time of concentration peak in serum (converted)
quantity_name: Tmax (min)

> print(dat)
                                        mol  unit.abbreviation  quantitative.result
1  CCn1cc(C(=O)O)c(=O)c2cc(F)c(N3CCNCC3)cc21                min                   30

====

assay: Concentrations in urine of rats after a single oral administration; type: in vivo; conditions: rat, 12.5 mg/kg oral, 6-24 hours, mean ±S.E., read-out: Urinary level
quantity_name: concentration at 24 h (ng/mL)

> print(dat)
                                   compound          quantity.name  unit.abbreviation  quantitative.result
1  CCn1cc(C(=O)O)c(=O)c2cc(F)c(N3CCNCC3)cc21 [Compound (II)]  concentration at 24 h              ng/mL                 4000

====

assay: Concentrations in urine of mice after a single oral administration; format: in vivo; details: mouse, 1.56 mg/kg oral, 3-6 hours, mean ±S.E., read-out: Urinary level
quantity_name: concentration at 6 h (ng/mL)

> print(dat)
                                        mol  unit.abbreviation  quantitative.result
1  CCn1cc(C(=O)O)c(=O)c2cc(F)c(N3CCNCC3)cc21              ng/mL                  220

====

experiment: Concentrations in urine of mice after a single oral administration; format: in vivo; conditions: mouse, 50.0 mg/kg oral, 3-6 hours, mean ±S.E., read-out: Urinary level
quantity_name: concentration at 6 h (µg/mL)

> print(dat)
                                   compound         quantity.name  quantitative.result
1  CCn1cc(C(=O)O)c(=O)c2cc(F)c(N3CCNCC3)cc21 [Compound (II)]  concentration at 6 h                 27.2

====

experiment: Concentrations in urine of rats after a single oral administration; type: in vivo; settings: rat, 25.0 mg/kg oral, 24-27 hours, mean ±S.E., read-out: Urinary level
quantity_name: concentration at 27 h (ng/mL)

> print(dat)
                                        mol          quantity.name  quantitative.result
1  CCn1cc(C(=O)O)c(=O)c2cc(F)c(N3CCNCC3)cc21  concentration at 27 h                 1200

====

experiment: Concentrations in urine of rats after a single oral administration; format: in vivo; conditions: rat, 3.13 mg/kg oral, 6-24 hours, mean ±S.E., read-out: Urinary level
quantity_name: concentration at 24 h (ng/mL)

> print(dat)
                                        mol  quantitative.result
1  CCn1cc(C(=O)O)c(=O)c2cc(F)c(N3CCNCC3)cc21                  580

====

test: Concentrations in urine of mice after a single oral administration; type: in vivo; conditions: mouse, 6.25 mg/kg oral, 3-6 hours, mean ±S.E., read-out: Urinary level
quantity_name: concentration at 6 h (µg/mL)

> print(dat)
                                        mol  quantitative.result
1  CCn1cc(C(=O)O)c(=O)c2cc(F)c(N3CCNCC3)cc21                 2.04

====

assay: in vivo; details: rat, po, 50 mg/kg
quantity_name: concentration at 0.5 h

> print(dat)
                                   molecule      result
1  CCn1cc(C(=O)O)c(=O)c2cc(F)c(N3CCNCC3)cc21 [Compound (II)]  11100 ng/g

====

test: Serum concentrations after a single oral administration of 50 mg/kg in rats; type: in vivo; conditions: serum; rat, 50 mg/kg oral, 6 hours
quantity_name: concentration at 6 h (ng/mL)

> print(dat)
                                        mol  unit.abbreviation  quantitative.result
1  CCn1cc(C(=O)O)c(=O)c2cc(F)c(N3CCNCC3)cc21              ng/mL                  110

====

experiment: Concentrations in urine of rats after a single oral administration; type: in vivo; details: rat, 50.0 mg/kg oral, 24-27 hours, mean ±S.E., read-out: Urinary level
quantity_name: concentration at 27 h (ng/mL)

> print(dat)
                                   compound  unit.abbreviation  quantitative.result
1  CCn1cc(C(=O)O)c(=O)c2cc(F)c(N3CCNCC3)cc21 [Compound (II)]              ng/mL                 3100

====

experiment: Concentrations in urine of mice after a single oral administration; assay type: in vivo; conditions: mouse, 25.0 mg/kg oral, 3-6 hours, mean ±S.E., read-out: Urinary level
quantity_name: concentration at 6 h

> print(dat)
                                        mol       result
1  CCn1cc(C(=O)O)c(=O)c2cc(F)c(N3CCNCC3)cc21  20300 ng/mL

====

assay: Concentrations in tissues after a single oral administration of 50 mg/kg in rats; details: rat, liver, po, 50 mg/kg
quantity_name: concentration at 2 h (ng/g)

> print(dat)
                                        mol         quantity.name  quantitative.result
1  CCn1cc(C(=O)O)c(=O)c2cc(F)c(N3CCNCC3)cc21  concentration at 2 h                 5400

====

assay: Concentrations in urine of mice after a single oral administration; type: in vivo; conditions: mouse, 3.13 mg/kg oral, 0-3 hours, mean ±S.E., read-out: Urinary level
quantity_name: concentration at 3 h (ng/mL)

> print(dat)
                                        mol  quantitative.result
1  CCn1cc(C(=O)O)c(=O)c2cc(F)c(N3CCNCC3)cc21                 1760

====

experiment: in vivo; details: rat, po, 50 mg/kg
quantity_name: concentration at 6 h (ng/g)

> print(dat)
                                        mol         quantity.name  quantitative.result
1  CCn1cc(C(=O)O)c(=O)c2cc(F)c(N3CCNCC3)cc21  concentration at 6 h                 1400

====

assay: Concentrations in tissues after a single oral administration of 50 mg/kg in rats; settings: rat, liver, po, 50 mg/kg
quantity_name: concentration at 4 h (ng/g)

> print(dat)
                                        mol  quantitative.result
1  CCn1cc(C(=O)O)c(=O)c2cc(F)c(N3CCNCC3)cc21                 2600

====

test: in vivo; details: rat, po, 50 mg/kg
quantity_name: concentration at 2 h (ng/g)

> print(dat)
                                        mol         quantity.name  unit.abbreviation  quantitative.result
1  CCn1cc(C(=O)O)c(=O)c2cc(F)c(N3CCNCC3)cc21  concentration at 2 h               ng/g                 6500

====

experiment: Concentrations in urine of mice after a single oral administration; type: in vivo; conditions: mouse, 25.0 mg/kg oral, 24-27 hours, mean ±S.E., read-out: Urinary level
quantity_name: concentration at 27 h (ng/mL)

> print(dat)
                                   compound  quantitative.result
1  CCn1cc(C(=O)O)c(=O)c2cc(F)c(N3CCNCC3)cc21 [Compound (II)]                 2500

====

assay: Serum concentrations at 30 min. after a single oral administration in rats; settings: rat, 100 mg/kg
quantity_name: concentration at 0.5 h (µg/mL)

> print(dat)
                                        mol  quantitative.result
1  CCn1cc(C(=O)O)c(=O)c2cc(F)c(N3CCNCC3)cc21                 1.42
